Suppressive Rate overview
system: mice; experiment: Test for analgesic effect (4): acetic acid writhing test; type: in vivo, mouse (ddY strain); settings: oral 100 mg/kg single dose; writhing numbers during 10 minutes
Numbers only here, please. The scale is %.

Field request: Suppressive Rate | item: Cn1cncc1C[C@H](NC(=O)C=Cc1ccccc1)C(=O)O
23.5

Field request: Suppressive Rate | item: CCn1cncc1C[C@H](NC(=O)C=C(C)C)C(=O)O
38.0

Field request: Suppressive Rate | item: C=CC(=O)N[C@@H](Cc1cncn1CC)C(=O)O
27.6

* * *

system: mice; experiment: Test for analgesic effect (4): acetic acid writhing test; type: in vivo, mouse (ddY strain); conditions: oral 100 mg/kg single dose; writhing numbers during 10 minutes
METRIC: Suppressive Rate (%)
Numbers only here, please. The scale is %.

// below: answered molecules
Cc1ccc(C=CC(=O)N[C@@H](Cc2cncn2C)C(=O)O)cc1; 30.3
C=CC(=O)N[C@@H](Cc1cncn1C)C(=O)O; 53.8

Now look at this entry.
Field request: Suppressive Rate | item: CC=C(C)C(=O)N[C@@H](Cc1cncn1C)C(=O)O
36.1
